Assay: Hemolytic activity against human RBC assessed as hemolysis after 30 mins by colorimetric method
Assay type: ADME, cell-based, Erythrocyte
Details: human red blood cells (erythrocytes)
Recorded HC50 at 0.5 h for the following compounds
// units = nM; emit number, no label

Compound structure	HC50 at 0.5 h, nM
CCCCN1C(=O)[C@@H](Cc2ccccc2)NC(=O)[C@H](CC(C)C)NC(=O)[C@H](CCCN)NC(=O)[C@H]([C@@H](C)CC)NC(=O)c2cc(c(C)s2)C2=C(CCC2)c2cc(sc2C)C(=O)[C@H]2CCCN2C(=O)[C@H](CC(C)C)NC(=O)[C@H](CCCN)NC(=O)[C@H]([C@@H](C)CC)NC(=O)[C@@H]1CC(C)C	3000

Reported HC50 at 0.5 h for Cc1sc2cc1C1=C(CCC1)c1cc(sc1C)C(=O)[C@H]1CCCN1C(=O)[C@H](CCCCN)NC(=O)[C@H](C13CC4CC(CC(C4)C1)C3)NC(=O)[C@H](CCCN)NC(=O)[C@@H]1CCCN1C(=O)[C@@H](Cc1ccccc1)NC(=O)[C@H](CCCN)NC(=O)[C@H](C13CC4CC(CC(C4)C1)C3)NC(=O)[C@H](CCCN)NC2=O : what is it?
1000
